System: HCC827
Test: Antiproliferative activity against human HCC827 cells assessed as decrease in cell survival measured after 72 hrs by CCK-8 assay
Assay type: functional, cell-based
Settings: HCC827, 72 h
Measured IC50 by item

Q: Find the recorded IC50 belonging to COc1cc2ncnc(Nc3ccc(F)c(Cl)c3)c2cc1OCCCN1CCN(CCO[Si](c2ccccc2)(c2ccccc2)C(C)(C)C)CC1 and report it.
Result: > 10 µM

Q: # query: IC50 of entry COc1cc2ncnc(Nc3ccc(F)c(Cl)c3)c2cc1OCCOCCO[Si](c1ccccc1)(c1ccccc1)C(C)(C)C
Result: > 10 µM

Q: Give its IC50 value. Item: COc1cc2ncnc(Nc3ccc(F)c(Cl)c3)c2cc1OCCCN1CCN(CCn2cc(CCCCO[Si](C)(C)C3CCCCC3)nn2)CC1
Result: > 10 µM

// moving on: another record for IC50
Q: # query: IC50 of entry COc1cc2ncnc(Nc3ccc(F)c(Cl)c3)c2cc1OCCCN1CCN(CCn2cc(CCCO[Si](c3ccccc3)(c3ccccc3)C(C)(C)C)nn2)CC1
Result: 1.58 µM
